EXPERIMENT: Colistin plasma pharmacokinetics at steady state in critically ill patients undergoing CRRT (CVVHDF)
Format: in vivo, human
RUN CONDITIONS: human; plasma colistin, 20 patients on CVVHDF; IV CMS 6.75 MIU q12 after 9 MIU LD; day 4; AUC0-12 (linear trapezoidal) x 2; median [IQR]; read-out: AUC0-24
EXPERIMENTAL READOUT: AUC(0-t)
Your reply should be a number followed by the unit it is expressed in.

(Q) Return reported AUC(0-t); argument: CC[C@H](C)CCCCC(=O)N[C@@H](CCN)C(=O)N[C@H](C(=O)N[C@@H](CCN)C(=O)N[C@H]1CCNC(=O)[C@H]([C@@H](C)O)NC(=O)[C@H](CCN)NC(=O)[C@H](CCN)NC(=O)[C@H](CC(C)C)NC(=O)[C@@H](CC(C)C)NC(=O)[C@H](CCN)NC1=O)[C@@H](C)O (mixture of isomers)
(A) 194 µg·h/mL

// data source = paper PMC11438743
